Below: a set of entries, each annotated with reported pEC50.
# target-of-assay: human MRGPRX4-83L (Homo sapiens, UniProt Q96LA9)
# Construct: host or cells: CHO β-arrestin cells
# Sequence (Q96LA9 whole entry): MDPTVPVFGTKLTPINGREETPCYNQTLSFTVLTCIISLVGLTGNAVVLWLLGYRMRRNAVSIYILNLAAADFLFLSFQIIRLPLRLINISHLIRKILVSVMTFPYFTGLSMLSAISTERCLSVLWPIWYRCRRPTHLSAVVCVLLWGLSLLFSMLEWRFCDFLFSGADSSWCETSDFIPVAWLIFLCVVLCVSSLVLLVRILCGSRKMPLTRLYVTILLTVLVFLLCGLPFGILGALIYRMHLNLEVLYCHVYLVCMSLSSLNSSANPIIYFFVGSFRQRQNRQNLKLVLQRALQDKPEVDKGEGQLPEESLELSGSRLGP
# test: Calcium assay (human MRGPRX4 83L), recombinant astrocytes
# Assay type: cell-based
# reported-conditions: Table 1; calcium mobilization, MRGPRX4-83L; read-out: EC50 ± SEM
pEC50: −log10 of the molar value.

These recorded examples may help you get a feel for the data.
| compound | target-of-assay | pEC50 |
| --- | --- | --- |
| C#CCn1c(=O)c2[nH]c(CCc3ccccc3Cl)nc2n(CCCCP(=O)(O)O)c1=O | human MRGPRX4-83L (Homo sapiens, UniProt Q96LA9) | 7.26 |
| C#CCn1c(=O)c2[nH]c(CCc3ccc(OC)c(OC)c3)nc2n(CCCCP(=O)(OCC)OCC)c1=O | human MRGPRX4-83L (Homo sapiens, UniProt Q96LA9) | < 5.00 |
| C#CCn1c(=O)c2[nH]c(CCc3cccc(OC)c3)nc2n(CCCCP(=O)(OCC)OCC)c1=O | human MRGPRX4-83L (Homo sapiens, UniProt Q96LA9) | < 5.00 |
| CCCn1c(=O)c2c(nc(CCc3cccc(OC)c3)n2C)n(CCCOP(=O)(O)O)c1=O [H-2, reference compound] | human MRGPRX4-83L (Homo sapiens, UniProt Q96LA9) | 5.60 |
| C#CCn1c(=O)c2[nH]c(CCc3cccc(C)c3)nc2n(CCCCP(=O)(OCC)OCC)c1=O | human MRGPRX4-83L (Homo sapiens, UniProt Q96LA9) | < 5.00 |

Notebook: CCOP(=O)(CCCCn1c(=O)n(CC)c(=O)c2[nH]c(C3CC3c3ccccc3)nc21)OCC (stereo not drawn) , pEC50 read as < 5.00
